Please go through the items and note down their pIC50.
testedSystem: LRRK2(G2019S mutation, GST-LRRK2(amino acids 970-2527)) (Homo sapiens (Human), UniProt Q5S007, G2019S)
Sequence (Q5S007 970-2527 G2019S): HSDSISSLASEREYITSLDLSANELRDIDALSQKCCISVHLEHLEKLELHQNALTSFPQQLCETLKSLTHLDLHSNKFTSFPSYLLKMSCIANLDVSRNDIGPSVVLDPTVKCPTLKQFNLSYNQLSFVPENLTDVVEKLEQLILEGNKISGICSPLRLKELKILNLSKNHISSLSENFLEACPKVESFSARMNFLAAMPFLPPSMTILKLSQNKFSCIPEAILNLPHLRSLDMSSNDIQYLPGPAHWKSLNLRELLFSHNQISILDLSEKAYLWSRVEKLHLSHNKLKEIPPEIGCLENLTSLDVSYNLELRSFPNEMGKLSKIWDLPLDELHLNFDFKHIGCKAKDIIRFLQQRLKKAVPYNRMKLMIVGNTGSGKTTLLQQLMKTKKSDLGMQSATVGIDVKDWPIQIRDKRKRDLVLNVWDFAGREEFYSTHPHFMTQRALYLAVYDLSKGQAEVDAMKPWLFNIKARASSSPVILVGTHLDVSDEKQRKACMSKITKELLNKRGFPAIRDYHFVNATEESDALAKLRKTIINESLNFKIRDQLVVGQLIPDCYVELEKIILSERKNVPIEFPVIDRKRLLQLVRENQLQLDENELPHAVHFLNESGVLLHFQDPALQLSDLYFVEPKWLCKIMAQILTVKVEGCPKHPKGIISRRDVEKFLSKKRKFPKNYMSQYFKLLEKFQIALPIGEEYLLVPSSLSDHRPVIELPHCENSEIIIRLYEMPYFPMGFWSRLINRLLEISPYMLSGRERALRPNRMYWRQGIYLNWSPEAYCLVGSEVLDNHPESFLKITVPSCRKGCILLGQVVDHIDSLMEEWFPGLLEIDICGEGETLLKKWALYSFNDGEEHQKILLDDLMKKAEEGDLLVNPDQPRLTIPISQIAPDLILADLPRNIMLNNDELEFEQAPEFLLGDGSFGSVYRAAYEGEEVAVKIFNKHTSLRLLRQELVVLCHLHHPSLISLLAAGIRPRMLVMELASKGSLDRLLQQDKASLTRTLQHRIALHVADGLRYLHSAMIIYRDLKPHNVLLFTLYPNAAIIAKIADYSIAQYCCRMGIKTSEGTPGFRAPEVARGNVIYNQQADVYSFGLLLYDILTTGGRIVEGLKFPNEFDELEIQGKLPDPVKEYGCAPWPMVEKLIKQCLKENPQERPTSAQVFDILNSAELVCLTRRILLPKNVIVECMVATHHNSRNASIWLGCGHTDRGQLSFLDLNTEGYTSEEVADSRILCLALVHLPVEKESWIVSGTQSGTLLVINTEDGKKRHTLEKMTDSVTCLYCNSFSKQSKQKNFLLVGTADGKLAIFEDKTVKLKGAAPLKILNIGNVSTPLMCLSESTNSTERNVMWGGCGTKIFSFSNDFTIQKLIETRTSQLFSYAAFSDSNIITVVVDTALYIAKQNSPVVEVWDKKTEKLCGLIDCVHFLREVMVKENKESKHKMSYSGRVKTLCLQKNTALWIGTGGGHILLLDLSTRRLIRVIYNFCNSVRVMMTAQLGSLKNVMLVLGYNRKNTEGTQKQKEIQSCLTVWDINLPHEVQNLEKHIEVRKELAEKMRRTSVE
methodNotes: LRRK2 Km ATP LanthaScreen Assay
Assay type: biochemical
conditionSet: Km ATP (184 μM ATP solution), G2019S LRRK2, mean IC50
By convention, pIC50 is the negative base-10 log of a molar concentration.

Exam item: # lookup: pIC50 of `COCCOc1ccc2[nH]nc(-c3cc(N4CCO[C@@H](C)C4)ncn3)c2c1`
Marked response: 7.00

Exam item: So what does the record say about pIC50 for `CC(C)Oc1ccc2[nH]nc(-c3cc(N4C=CSCC4)ncn3)c2c1` ?
Marked response: 8.22

Exam item: Which pIC50 reading was recorded for the molecule `CC(C)Oc1cc2c(-c3cc(N4CCN(C)[C@H](C)C4)ncn3)n[nH]c2cc1F` ?
Marked response: 8.89

Exam item: Entry under review: `CC(C)Oc1ccc2[nH]nc(-c3cc(N4CC(S(C)(=O)=O)C4)ncn3)c2c1` . Reported pIC50?
Marked response: 7.88

Exam item: Using the record for `Cn1cc(-c2ccc3[nH]nc(-c4cc(N5CC[C@@H](CF)C5)ncn4)c3c2)cn1` , report its pIC50.
Marked response: 8.64

Exam item: Query: pIC50; subject: `COc1ccc2[nH]nc(-c3cc(N4CCO[C@H](C)C4)ncn3)c2c1`
Marked response: 7.55

Exam item: Using the record for `CC(C)Oc1cc2c(-c3cc(N4CCOCC4)ncn3)n[nH]c2cc1F` , report its pIC50.
Marked response: 8.62

Exam item: # query: pIC50 of entry `CS(=O)(=O)N1CCN(c2cc(-c3n[nH]c4ccc(-c5cccnc5)cc34)ncn2)CC1`
Marked response: 8.14

* * *

testedSystem: LRRK2(G2019S mutation, GST-LRRK2(amino acids 970-2527)) (Homo sapiens (Human), UniProt Q5S007, G2019S)
methodNotes: LRRK2 Km ATP LanthaScreen Assay
Type: biochemical
conditionSet: Km ATP (184 μM ATP solution), G2019S LRRK2, mean IC50
pIC50: −log10 of the molar value.
Response key: fulfilled means pIC50 >= 8; not fulfilled means pIC50 < 8.

Exam item: Please check the record `COCCOc1ccc2[nH]nc(-c3cc(N4C[C@H](F)[C@@H](F)C4)ncn3)c2c1` and state if its pIC50 is at or above 8.
Marked response: not fulfilled

Exam item: Could you please find out whether `CC(C)Oc1ccc2[nH]nc(-c3cc(N4CCN(c5cnn(C)c5)CC4)ncn3)c2c1` has pIC50 that meets 8 or exceeds it?
Marked response: fulfilled

Exam item: decide whether the reported pIC50 for `CCN1CCN(c2cc(-c3n[nH]c4ccc(OCCOC)cc34)ncn2)CC1=O` is at least 8.
Marked response: not fulfilled

Exam item: hey, is pIC50 for this one >= 8? `CCC(=O)N1CCN(c2cc(-c3n[nH]c4cc(F)c(OC(C)C)cc34)ncn2)CC1`
Marked response: fulfilled

Exam item: Does the reported pIC50 for `CC(C)Oc1cc2c(-c3cc(N4CCN(S(=O)(=O)C5CC5)CC4)ncn3)n[nH]c2cc1F` fall at or above the 8 mark?
Marked response: fulfilled

Exam item: Answer whether pIC50 of `CC(C)Oc1cc2c(-c3cc(N4C[C@H](F)[C@@H](F)C4)ncn3)n[nH]c2cc1F` is greater than or equal to 8.
Marked response: fulfilled

Exam item: State whether the measured pIC50 reaches 8, counting equality as reaching it, for `CC(C)Oc1cc2c(-c3cc(N4CCN(C5CC5)CC4)ncn3)n[nH]c2cc1F`
Marked response: fulfilled

Exam item: Decide: is the reported value of pIC50 for `CC(C)Oc1cc2c(-c3cc(N4CCN(CCO)CC4)ncn3)n[nH]c2cc1F` equal to or greater than 8?
Marked response: fulfilled

Exam item: pIC50 >= 8 for `CC(C)Oc1ccc2[nH]nc(-c3cc(N4CCC5(CCCO5)CC4)ncn3)c2c1` ?
Marked response: fulfilled

Exam item: Decide: pIC50 of `CCN1CCN(c2cc(-c3n[nH]c4ccc(OC)cc34)ncn2)CC1=O` >= 8?
Marked response: not fulfilled

Exam item: Please check the record `Cc1nc2c(o1)CCN(c1cc(-c3n[nH]c4ccc(-c5cnn(C)c5)cc34)ncn1)C2` and state if its pIC50 is at or above 8.
Marked response: fulfilled

Exam item: Threshold query (pIC50 >= 8) on `COCCOc1ccc2[nH]nc(-c3cc(N4CCN(C)C(=O)C4)ncn3)c2c1`
Marked response: not fulfilled

Exam item: Does Cn1cc(-c2cc3c(-c4cc(N5CCC(n6cccn6)C5)ncn4)n[nH]c3cc2F)cn1 (stereo not shown) have a reported pIC50 of at least 8?
Marked response: not fulfilled

Exam item: Confirm if pIC50 reported for the compound `Cn1cc(-c2ccc3[nH]nc(-c4cc(N5CCS(=O)(=O)CC5)ncn4)c3c2)cn1` is 8 or above.
Marked response: not fulfilled
